system: PEER; assay: selective drug sensitivity score (sDSS, relative to normal bone marrow) (sDSS (score)); higher = more potent and effective on the cell line relative to normal bone marrow cells; conditions: 72 h;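 further: ALL cell lines in 384-well plates, five doses spanning 10,000-fold, each plate scaled between vehicle and 100 µmol/L benzalkonium chloride controls, sDSS an adapted area-under-curve metric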
Items are presented alongside their recorded selective drug sensitivity score.
Respond with the number and no other words.

C=CC(=O)Nc1cccc(Nc2nc(Nc3ccc(N4CCN(C(C)=O)CC4)cc3OC)ncc2C(F)(F)F)c1 [Rociletinib] (top concentration 10000 nM) = 4.24
CC(O)(CS(=O)(=O)c1ccc(F)cc1)C(=O)Nc1ccc(C#N)c(C(F)(F)F)c1 (stereo not drawn) [Bicalutamide] (top concentration 10000 nM) = -0.18

Note: attention shifts to another entry.
Kindly state the measured selective drug sensitivity score obtained for Cc1ccc(-c2cc(C(F)(F)F)nn2-c2ccc(S(N)(=O)=O)cc2)cc1 [Celecoxib] (top concentration 10000 nM) with PEER. 0.94

====

system: MOLT-16; experiment: selective drug sensitivity score (sDSS, relative to normal bone marrow) (sDSS (score)); higher = more potent and effective on the cell line relative to normal bone marrow cells; settings: 72 h
Please mark 1 if the recorded selective drug sensitivity score is equal to or greater than -3, and 0 if it falls below.

COC12C(COC(N)=O)C3=C(C(=O)C(C)=C(N)C3=O)N1CC1NC12 (stereo in doubt) [Mitomycin_C] (top concentration 10000 nM) = 1
CC1(C)CCC(CN2CCN(c3ccc(C(=O)NS(=O)(=O)c4ccc(NCC5CCOCC5)c([N+](=O)[O-])c4)c(Oc4cnc5[nH]ccc5c4)c3)CC2)=C(c2ccc(Cl)cc2)C1 [Venetoclax] (top concentration 1000 nM) = 1

I'd appreciate it if you could say whether C=CC(=O)Nc1cccc(Nc2nc(Nc3ccc(N4CCN(C(C)=O)CC4)cc3OC)ncc2C(F)(F)F)c1 [Rociletinib] (top concentration 10000 nM) has selective drug sensitivity score at least equal to -3. 1

Next: CCn1c(-c2nonc2N)nc2c(C#CC(C)(C)O)ncc(OC[C@H]3CCCNC3)c21 (top concentration 10000 nM) 1

What do we get for c1cn2cc(-c3ccc4cn[nH]c4c3)nc(Nc3ccc(N4CCOCC4)cc3)c2n1 [Entospletinib] (top concentration 5000 nM) ? 1

Also, CCCCOc1nc(N)c2c(n1)N(Cc1cccc(CN3CCCC3)c1)CC(=O)N2 [Vesatolimod] (top concentration 10000 nM) please. 0

====

test system: COG-LL-402h; assay: selective drug sensitivity score (sDSS, relative to normal bone marrow) (sDSS (score)); higher = more potent and effective on the cell line relative to normal bone marrow cells; details: 72 h
Form field: selective drug sensitivity score (one value per entry).
Form: value (number only, do not type unit).

Recorded results for 5 compounds are shown here.
COc1cc(C(=O)O)ccc1NC(=O)[C@@H]1N[C@@H](CC(C)(C)C)[C@](C#N)(c2ccc(Cl)cc2F)[C@H]1c1cccc(Cl)c1F [Idasanutlin] (top concentration 10000 nM) = 15.4
COc1cc(CCc2cc(NC(=O)c3ccc(N4CC(C)NC(C)C4)cc3)n[nH]2)cc(OC)c1 (stereo unspecified) [AZD4547] (top concentration 1000 nM) = -0.14
CN[C@@H]1C[C@H]2O[C@@](C)([C@@H]1OC)n1c3ccccc3c3c4c(c5c6ccccc6n2c5c31)C(=O)N[C@H]4O [UCN-01] (top concentration 10000 nM) = 8.94
CC(O)c1cc(C(=O)N[C@@H](C)Cn2ccc(-c3ccc(C#N)c(Cl)c3)n2)n[nH]1 (stereo partly specified) [ODM-201] (top concentration 2500 nM) = 4.62
CC(=O)c1c(C)c2cnc(Nc3ccc(N4CCNCC4)cn3)nc2n(C2CCCC2)c1=O [Palbociclib] (top concentration 10000 nM) = 8.78

In the following, a different compound is considered.
Need selective drug sensitivity score, item Nc1cccc2c1C(=O)N(C1CCC(=O)NC1=O)C2=O (stereo unspecified) [Pomalidomide] (top concentration 10000 nM) 0.64

====

Catalogue of selective drug sensitivity score values
test system: ALL-PO; assay: selective drug sensitivity score (sDSS, relative to normal bone marrow) (sDSS (score)); higher = more potent and effective on the cell line relative to normal bone marrow cells; details: 72 h
Response field accepts a number only; no unit should be typed.

Check out these entries, answers already filled in.
O=S(=O)(c1cccc2c(O)nccc12)N1CCCNCC1 [Hydroxyfasudil] (top concentration 19000 nM) = -0.92
Nc1ncnc2c1c(-c1cccc(OCc3ccccc3)c1)cn2[C@H]1C[C@@H](CN2CCC2)C1 [NVP-AEW541] (top concentration 10000 nM) = 3.98
Nc1ccccc1NC(=O)c1ccc(CNC(=O)OCc2cccnc2)cc1 [Entinostat] (top concentration 10000 nM) = 4.08

Alright, here's another compound for you.
Please report the recorded selective drug sensitivity score for N.N.[Cl][Pt][Cl] [Cisplatin] (top concentration 100000 nM) . 8.44

====

Let's look at some compounds and their measured selective drug sensitivity score.
tested on: NALM-16; experiment: selective drug sensitivity score (sDSS, relative to normal bone marrow) (sDSS (score)); higher = more potent and effective on the cell line relative to normal bone marrow cells; conditions: 72 h
Give only the figure.

Take a look at these entries with their results.
COc1cc(C(=O)O)ccc1NC(=O)[C@@H]1N[C@@H](CC(C)(C)C)[C@](C#N)(c2ccc(Cl)cc2F)[C@H]1c1cccc(Cl)c1F [Idasanutlin] (top concentration 10000 nM) = -8.74
C[C@@H]1COCCN1c1cc(C2([S@](C)(=N)=O)CC2)nc(-c2cc[nH]c3nccc2-3)n1 [AZD6738] (top concentration 25000 nM) = 0.68
Nc1nc(Nc2ccc3c(c2)CC[C@@H](N2CCCC2)CC3)nn1-c1cc2c(nn1)-c1ccccc1CCC2 [BGB324] (top concentration 10000 nM) = -1.58

Please look up its selective drug sensitivity score: Nc1ncnc2c1c(-c1cccc(OCc3ccccc3)c1)cn2[C@H]1C[C@@H](CN2CCC2)C1 [NVP-AEW541] (top concentration 10000 nM) -1.42

What do we get for CN1CCC(CNc2ccc3ncc(-c4cccc(OC(F)(F)F)c4)n3n2)CC1 [SGI-1776] (top concentration 10000 nM) ? -1.38

Try this compound next: COc1cc(Nc2ncc(F)c(Nc3ccc4c(n3)NC(=O)C(C)(C)O4)n2)cc(OC)c1OC [Tamatinib] (top concentration 10000 nM) -1.42

Would you kindly repeat that for C[C@@H]1COC(Nc2ccc3ncnc(Nc4ccc(OCc5nccs5)c(Cl)c4)c3c2)=N1 [Varlitinib] (top concentration 10000 nM) ? 0.92

====

system: MHH-CALL-3; test: selective drug sensitivity score (sDSS, relative to normal bone marrow) (sDSS (score)); higher = more potent and effective on the cell line relative to normal bone marrow cells; settings: 72 h
Quick list: selective drug sensitivity score per entry.
Form rule: numeric answer, no unit written next to it.

Reference set, count: 2
CN[C@@H](C)C(=O)N[C@H](C(=O)N1CCC[C@H]1c1nc(C(=O)c2ccc(F)cc2)cs1)C1CCCCC1 [NVP-LCL161] (top concentration 25000 nM) = -3.22
COc1cc(C(=O)O)ccc1NC(=O)[C@@H]1N[C@@H](CC(C)(C)C)[C@](C#N)(c2ccc(Cl)cc2F)[C@H]1c1cccc(Cl)c1F [Idasanutlin] (top concentration 10000 nM) = 21.9

So what's the measured selective drug sensitivity score for this one? CC(=O)O[C@H]1C(=O)[C@@]2(C)[C@H]([C@H](OC(=O)c3ccccc3)[C@]3(O)C[C@H](OC(=O)[C@H](O)[C@@H](NC(=O)c4ccccc4)c4ccccc4)C(C)=C1C3(C)C)[C@]1(OC(C)=O)CO[C@@H]1C[C@@H]2O [Paclitaxel] (top concentration 1000 nM) 5.24

Could you do the same for CCC1=C[C@@H]2CN(C1)Cc1c([nH]c3ccccc13)[C@@](C(=O)OC)(c1cc3c(cc1OC)N(C)[C@H]1[C@@](O)(C(=O)OC)[C@H](OC(C)=O)[C@]4(CC)C=CCN5CC[C@]31[C@@H]54)C2 [Vinorelbine] (top concentration 10000 nM) , please? 11

Would you mind doing Cc1cc(Nc2nc(N[C@@H](C)c3ncc(F)cn3)ncc2Cl)[nH]n1 [AZD1480] (top concentration 1000 nM) as well? -1.28

Also check C=CC(=O)Nc1cccc(Oc2nc(Nc3ccc(N4CCN(C)CC4)cc3)nc3ccsc23)c1 [Olmutinib] (top concentration 1000 nM) -0.02

Please give the result for Cc1[nH]nc(C(F)(F)F)c1Cc1sc2c(c1C(=O)N1C[C@](C)(O)CO1)c(=O)n(C)c(=O)n2C(C)C [AZD3965] (top concentration 1000 nM) too. 0

Another compound to check: O=C1CCC(N2C(=O)c3ccccc3C2=O)C(=O)N1 (configuration not stated) [Thalidomide] (top concentration 10000 nM) -0.14

Try this compound too: Nc1ccccc1NC(=O)c1ccc(CNC(=O)OCc2cccnc2)cc1 [Entinostat] (top concentration 10000 nM) 11.4

And Cn1cnc2c(F)c(Nc3ccc(Br)cc3Cl)c(C(=O)NOCCO)cc21 [Selumetinib] (top concentration 10000 nM) ? 15.4

Next compound up: COc1ccc(-c2ccc3c(N4CCOC[C@@H]4C)nc(N4CCOC[C@@H]4C)nc3n2)cc1CO [AZD8055] (top concentration 10000 nM) -0.52

// query: Cn1cc(-c2[nH]c3cc(NC(=O)[C@H](N)C4CCCCC4)cc4c3c2C=NNC4=O)cn1 (top concentration 10000 nM) 0.38

From: the supplement of paper PMC8967900
